- Test system: HCC1599
- protocolDescription: normalised response (% of control), CellTiter-Glo; higher = more viable cells (100 = DMSO, 0 = benzethonium chloride kill control)
- conditionSet: incubation time: 72 h
resultType: normalised response

See these solved cases before continuing.
molecule: C[C@]12C=CC(=O)C=C1CC[C@@H]1[C@@H]2[C@@H](O)C[C@@]2(C)[C@H]1CC[C@]2(O)C(=O)CO [Prednisolone] (10 nM)
targetDesc: HCC1599
normalised response: 97.6%

molecule: COc1cc(CCc2cc(NC(=O)c3ccc(N4CC(C)NC(C)C4)cc3)n[nH]2)cc(OC)c1 (stereo not drawn) [AZD4547] (100 nM)
targetDesc: HCC1599
normalised response: 107%

molecule: C[C@]12C=CC(=O)C=C1CC[C@@H]1[C@@H]2[C@@H](O)C[C@@]2(C)[C@H]1CC[C@]2(O)C(=O)CO [Prednisolone] (1000 nM)
targetDesc: HCC1599
normalised response: 109%

molecule: CC/C(=C(\c1ccc(O)cc1)c1ccc(OCCN(C)C)cc1)c1ccccc1 [4-hydroxytamoxifen] (10 nM)
targetDesc: HCC1599
normalised response: 93.5%

molecule: O=C(NC[C@H](O)CO)c1ccncc1Nc1ccc(I)cc1F [Pimasertib] (1 nM)
targetDesc: HCC1599
normalised response: 106%

Which normalised response value is on record for Cn1cc(CNCC2CCN(c3ncc(C(=O)NO)cn3)CC2)c2ccccc21 [Quisinostat] (100 nM) ?
42.1%

Which normalised response value is on record for Cc1nc(Nc2ncc(C(=O)Nc3c(C)cccc3Cl)s2)cc(N2CCN(CCO)CC2)n1 [Dasatinib] (100 nM) ?
118%

Which normalised response value is on record for CCCCC/C=C/C=C1/C(=O)C=C[C@@H]1C/C=C\CCCC(=O)O [15D-PGJ2] (0.8 nM) ?
93.8%

###

- Test system: CAL-148
- protocolDescription: normalised response (% of control), CellTox Green; higher = less cell death (100 = DMSO, 0 = benzethonium chloride kill control)
- conditionSet: incubation time: 72 h
Quick list: normalised response per entry.
The figure you give is taken to be in %; do not add the unit.

compound: CCC/C=C/C=C/C(=O)O[C@H]1/C(=C/C(=O)OC)C[C@H]2C[C@H]([C@@H](C)O)OC(=O)C[C@H](O)C[C@@H]3C[C@H](OC(C)=O)C(C)(C)[C@](O)(C[C@@H]4C/C(=C/C(=O)OC)C[C@H](/C=C/C(C)(C)[C@]1(O)O2)O4)O3 [Bryostatin 1] (1 nM)
targetDesc: CAL-148
scaleUnit: %
normalised response: 111

compound: Cc1ccc(Nc2nccc(N(C)c3ccc4c(C)n(C)nc4c3)n2)cc1S(N)(=O)=O [Pazopanib] (100 nM)
targetDesc: CAL-148
scaleUnit: %
normalised response: 96

compound: CNC(=O)c1cc(Oc2ccc(NC(=O)Nc3ccc(Cl)c(C(F)(F)F)c3)cc2)ccn1 [Sorafenib] (100 nM)
targetDesc: CAL-148
scaleUnit: %
normalised response: 73

compound: CC[C@@]1(O)C(=O)OCc2c1cc1n(c2=O)Cc2cc3c(CN(C)C)c(O)ccc3nc2-1 [Topotecan] (10000 nM)
targetDesc: CAL-148
scaleUnit: %
normalised response: 7.1

compound: COc1cc(CCc2cc(NC(=O)c3ccc(N4CC(C)NC(C)C4)cc3)n[nH]2)cc(OC)c1 (stereo unspecified) [AZD4547] (10 nM)
targetDesc: CAL-148
scaleUnit: %
normalised response: 51.3

Here is the next item to consider.
Which normalised response value is on record for CNC(=O)c1cc(Oc2ccc(NC(=O)Nc3ccc(Cl)c(C(F)(F)F)c3)cc2)ccn1 [Sorafenib] (10 nM) ?
103

###

- System: HCC1937
- protocolDescription: normalised response (% of control), CellTiter-Glo; higher = more viable cells (100 = DMSO, 0 = benzethonium chloride kill control)
- conditionSet: incubation time: 72 h
resultType: normalised response (%)
The figure you give is taken to be in %; do not add the unit.

molecule: O=C(Nc1c[nH]nc1-c1nc2ccc(CN3CCOCC3)cc2[nH]1)NC1CC1 [AT9283] (10 nM)
targetDesc: HCC1937
resultType: normalised response
testResult: 98.1

Which normalised response value is on record for O=C1c2c(O)ccc(O)c2C(=O)c2c(NCCNCCO)ccc(NCCNCCO)c21 [Mitoxantrone] (10 nM) ?
101

Which normalised response value is on record for Cc1nc(Nc2ncc(C(=O)Nc3c(C)cccc3Cl)s2)cc(N2CCN(CCO)CC2)n1 [Dasatinib] (10 nM) ?
90.5

Which normalised response value is on record for CC(C)N(CCCNC(=O)Nc1ccc(C(C)(C)C)cc1)C[C@H]1O[C@@H](n2cc(Br)c3c(N)ncnc32)[C@H](O)[C@@H]1O [SGC0946] (100 nM) ?
94.4

Which normalised response value is on record for Cn1cc(CNCC2CCN(c3ncc(C(=O)NO)cn3)CC2)c2ccccc21 [Quisinostat] (10 nM) ?
85.2

Which normalised response value is on record for C[C@]12O[C@H](C[C@]1(O)CO)n1c3ccccc3c3c4c(c5c6ccccc6n2c5c31)CNC4=O [Lestaurtinib] (10 nM) ?
94.3

###

Quick list: EC50, CellTiter-Blue viability per entry.
- Tested on: MDA-MB-453
- conditionSet: 72 h
The figure you give is taken to be in µM; do not add the unit.

smilesStructure: CC[C@@]1(O)C(=O)OCc2c1cc1n(c2=O)Cc2cc3c(CN(C)C)c(O)ccc3nc2-1
targetDesc: MDA-MB-453
EC50, CellTiter-Blue viability / µM: 0.457

smilesStructure: O=C1c2c(O)ccc(O)c2C(=O)c2c(NCCNCCO)ccc(NCCNCCO)c21
targetDesc: MDA-MB-453
EC50, CellTiter-Blue viability / µM: 0.539

smilesStructure: C[C@]12C=CC(=O)C=C1CC[C@@H]1[C@@H]2[C@@H](O)C[C@@]2(C)[C@H]1CC[C@]2(O)C(=O)CO
targetDesc: MDA-MB-453
EC50, CellTiter-Blue viability / µM: 0.171

Here is the next item to consider.
Which EC50, CellTiter-Blue viability value is on record for Nc1ccccc1NC(=O)c1ccc(CNc2nccc(-c3cccnc3)n2)cc1 ?
0.588

###

- Test system: HCC1143
- protocolDescription: normalised response (% of control), CellTox Green; higher = less cell death (100 = DMSO, 0 = benzethonium chloride kill control)
- conditionSet: incubation time: 72 h
Quick list: normalised response per entry.
The figure you give is taken to be in %; do not add the unit.

See these solved cases before continuing.
compound: Cc1ccc(Nc2nccc(N(C)c3ccc4c(C)n(C)nc4c3)n2)cc1S(N)(=O)=O [Pazopanib] (100 nM)
testResult: 98

compound: C[C@]12C=CC(=O)C=C1CC[C@@H]1[C@@H]2[C@@H](O)C[C@@]2(C)[C@H]1CC[C@]2(O)C(=O)CO [Prednisolone] (1000 nM)
testResult: 112

compound: COc1ccc(-c2cc3c(C)nc(N)nc3n([C@H]3CC[C@H](OCCO)CC3)c2=O)cn1 (10000 nM)
testResult: 91.1

compound: C[C@]12O[C@H](C[C@]1(O)CO)n1c3ccccc3c3c4c(c5c6ccccc6n2c5c31)CNC4=O [Lestaurtinib] (1000 nM)
testResult: 73.5

Which normalised response value is on record for CO[C@@H](C(=O)N1Cc2[nH]nc(NC(=O)c3ccc(N4CCN(C)CC4)cc3)c2C1)c1ccccc1 [Danusertib] (1000 nM) ?
66.9

Which normalised response value is on record for CNC(=O)c1cc(Oc2ccc(NC(=O)Nc3ccc(Cl)c(C(F)(F)F)c3)cc2)ccn1 [Sorafenib] (1000 nM) ?
101

Which normalised response value is on record for O=C(Nc1c[nH]nc1-c1nc2ccc(CN3CCOCC3)cc2[nH]1)NC1CC1 [AT9283] (10 nM) ?
108

###

- Test system: BT-474
- protocolDescription: drug sensitivity score (DSS), CellTox Green (DSS (AUC-based score)); higher = stronger drug effect (viability inhibition or cytotoxicity); extreme values may be limits of the assay
- conditionSet: incubation time: 72 h
resultType: drug sensitivity score
Note: the reply should be a number with no unit written.

See these solved cases before continuing.
compound: CCCCC/C=C/C=C1/C(=O)C=C[C@@H]1C/C=C\CCCC(=O)O [15D-PGJ2]
drug sensitivity score: 0
//
compound: CNC(=O)c1cc(Oc2ccc(NC(=O)Nc3ccc(Cl)c(C(F)(F)F)c3)cc2)ccn1
drug sensitivity score: 0
//
compound: COc1cc(CCc2cc(NC(=O)c3ccc(N4CC(C)NC(C)C4)cc3)n[nH]2)cc(OC)c1 (stereo unspecified)
drug sensitivity score: 0
//
compound: O=C(NC[C@H](O)CO)c1ccncc1Nc1ccc(I)cc1F
drug sensitivity score: 2.1
//
compound: CC/C(=C(\c1ccc(O)cc1)c1ccc(OCCN(C)C)cc1)c1ccccc1 [4-hydroxytamoxifen]
drug sensitivity score: 3.8

Which drug sensitivity score value is on record for Nc1cccc2c1CN(C1CCC(=O)NC1=O)C2=O (stereo unspecified) [Lenalidomide] ?
0

// data source = the supplement of paper PMC4862054
